Entry source: patent US20260049072A1

tested on: PA-TU-8902 cells; test: Non-anchorage-dependent cell growth inhibition (spheroid 3D culture), PA-TU-8902; format: cell-based, human; conditions: Homo sapiens, PaTu 8902, 144 h; KRAS G12V mutant-positive, 3D spheroid, six days, CellTiter-Glo 2.0; read-out: PA-TU-8902 IC50
Parameter IC50: see the listing below.
State just the number; it will be interpreted in nM.

Would you please look over these solved cases?
CC[C@H](C)[C@@H](C(=O)N1C[C@H](O)C[C@H]1C(=O)N[C@@H](CO)c1ccc(-c2scnc2C)cc1)n1cc(-c2ccc(COc3c(-c4c(C)c(F)cc5[nH]ncc45)c(C4CC4)cc4c(O[C@H]5CCN(C(=O)NCCN(C)C)C5)nc(OC[C@H](C)OC)nc34)cc2)nn1 (single isomer, unassigned); 159
Cc1ncsc1-c1ccc([C@H](CO)NC(=O)[C@@H]2C[C@@H](O)CN2C(=O)[C@H](C(C)C)n2cc(-c3ccc(COc4c(-c5c(C)c(F)cc6[nH]ncc56)c(C5CC5)cc5c(NC6CN(c7ncccn7)C6)nc(OC6CCOCC6)nc45)cc3)nn2)cc1; 161
Cc1ncsc1-c1ccc([C@H](CO)NC(=O)[C@@H]2C[C@@H](O)CN2C(=O)[C@H](C(C)C)n2cc(-c3ccc(COc4c(-c5c(C)c(F)cc6[nH]ncc56)c(C5CC5)cc5c(OC6CN(C(=O)NCCO)C6)nc(OC6CCOCC6)nc45)cc3)nn2)cc1; 261
Cc1ncsc1-c1ccc([C@H](CO)NC(=O)[C@@H]2C[C@@H](O)CN2C(=O)[C@H](C(C)C)n2cc(-c3ccc(COc4c(-c5c(C)c(F)cc6[nH]ncc56)c(C5CC5)cc5c(OC6CN(C(=O)NCCN(C)C)C6)nc(OC6CCN(CC(F)F)CC6)nc45)cc3)nn2)cc1 (atropisomer, axis not shown); 67

CO[C@@H](C)COc1nc(NC2CN(C(=O)N3CCN(C)CC3)C2)c2cc(C3CC3)c(-c3c(C)c(F)cc4[nH]ncc34)c(OCc3ccc(-c4cn([C@H](C(=O)N5C[C@H](O)C[C@H]5C(=O)N[C@@H](CO)c5ccc(-n6cncn6)cc5)C(C)C)nn4)cc3)c2n1 (atropisomer, axis not shown) on PA-TU-8902 cells gives IC50 = 122

CNCCNC(=O)N1CC(Oc2nc(OC[C@H](C)OC)nc3c(OCc4ccc(-c5cn([C@H](C(=O)N6C[C@H](O)C[C@H]6C(=O)N[C@@H](CO)c6ccc(-c7scnc7C)cc6)C(C)C)nn5)cc4)c(-c4c(C)c(F)cc5[nH]ncc45)c(C4CC4)cc23)C1 (atropisomer, axis not shown) on PA-TU-8902 cells gives IC50 = 69

CO[C@@H](C)COc1nc(N2CC(C#N)C2)c2cc(C3CC3)c(-c3c(C)c(F)cc4[nH]ncc34)c(OCc3ccc(-c4cn([C@H](C(=O)N5C[C@H](O)C[C@H]5C(=O)N[C@@H](CO)c5ccc(-c6scnc6C)cc5)C(C)C)nn4)cc3)c2n1 (atropisomer, axis not shown) on PA-TU-8902 cells gives IC50 = 63

---

test system: PA-TU-8902 cells; assay: Non-anchorage-dependent cell growth inhibition (spheroid 3D culture), PA-TU-8902; format: cell-based, human; settings: Homo sapiens, PaTu 8902, 144 h; KRAS G12V mutant-positive, 3D spheroid, six days, CellTiter-Glo 2.0; read-out: PA-TU-8902 IC50
Quantity Kind: pIC50
Scale: pIC50 equals -log10([C]), with [C] in mol/L.

Cc1ncsc1-c1ccc([C@H](CO)NC(=O)[C@@H]2C[C@@H](O)CN2C(=O)[C@H](C(C)C)n2cc(-c3ccc(COc4c(-c5c(C)c(F)cc6[nH]ncc56)c(C5CC5)cc5c(N(C)C6CN(C(=O)O[C@H]7CCN(C)C7)C6)nc(OC6CCOCC6)nc45)cc3)nn2)cc1 (atropisomer, axis not shown); 6.99
Cc1ncsc1-c1ccc([C@H](CO)NC(=O)[C@@H]2C[C@@H](O)CN2C(=O)[C@H](C(C)C)n2cc(-c3ccc(COc4c(-c5c(C)c(F)cc6[nH]ncc56)c(C5CC5)cc5c(OC6CN(C(=O)NCCN(C)C)C6)nc(OCC(C)(C)CN(C)C)nc45)cc3)nn2)cc1; 6.84
Cc1c(F)cc2[nH]ncc2c1-c1c(C2CC2)cc2c(OC3CN(C(=O)NCCN(C)C)C3)nc(OC3CCOCC3)nc2c1OCc1ccc(-c2cn([C@H](C(=O)N3C[C@H](O)C[C@H]3C(=O)N[C@@H](CO)c3ccc(-n4cccn4)cc3)C(C)C)nn2)cc1; 6.63
CO[C@@H](C)COc1nc(NC2CN(C(=O)O[C@H]3C[C@@H](N(C)C)C3)C2)c2cc(C3CC3)c(-c3c(C)c(F)cc4[nH]ncc34)c(OCc3ccc(-c4cn([C@H](C(=O)N5C[C@H](O)C[C@H]5C(=O)N[C@@H](CO)c5ccc(-c6ocnc6C)cc5)C(C)C)nn4)cc3)c2n1 (atropisomer, axis not shown; (M)); 7.24

pIC50 reported for this compound CO[C@@H](C)COc1nc(OC2CN(C(=O)NCCN(C)C)C2)c2cc(C3CC3)c(-c3c(C)c(F)cc4[nH]ncc34)c(OCc3ccc(-c4cn([C@H](C(=O)N5C[C@H](O)C[C@H]5C(=O)N[C@@H](CO)c5ccc(-c6scnc6C)cc5)C(C)C)nn4)cc3)c2n1 (atropisomer, axis not shown) : 7.34

pIC50 reported for this compound CO[C@@H](C)COc1nc(OC2CN(C(=O)NCCN3CCCC3)C2)c2cc(C3CC3)c(-c3c(C)c(F)cc4[nH]ncc34)c(OCc3ccc(-c4cn([C@H](C(=O)N5C[C@H](O)C[C@H]5C(=O)N[C@@H](CO)c5ccc(-c6scnc6C)cc5)C(C)C)nn4)cc3)c2n1 (atropisomer, axis not shown) : 7.19

pIC50 reported for this compound CO[C@@H](C)COc1nc(NC2CN(C(=O)N3CC(CN(C)C)C3)C2)c2cc(C3CC3)c(-c3c(C)c(F)cc4[nH]ncc34)c(OCc3ccc(-c4cn([C@H](C(=O)N5C[C@H](O)C[C@H]5C(=O)N[C@@H](CO)c5ccc(-c6scnc6C)cc5)C(C)C)nn4)cc3)c2n1 (atropisomer, axis not shown) : 7.39
